Catalogue of molecules with associated Gmax/Gmax0
TGT: Nav1.5/β1 (Homo sapiens, UniProt Q14524)
Construct: Nav1.5 (UniProt: Q14524.1); expressed in transfected cells; host or cells: Xenopus laevis oocytes (cRNA injection, Nav1.5:β1 2:1 by weight)
Sequence (Q14524 whole entry): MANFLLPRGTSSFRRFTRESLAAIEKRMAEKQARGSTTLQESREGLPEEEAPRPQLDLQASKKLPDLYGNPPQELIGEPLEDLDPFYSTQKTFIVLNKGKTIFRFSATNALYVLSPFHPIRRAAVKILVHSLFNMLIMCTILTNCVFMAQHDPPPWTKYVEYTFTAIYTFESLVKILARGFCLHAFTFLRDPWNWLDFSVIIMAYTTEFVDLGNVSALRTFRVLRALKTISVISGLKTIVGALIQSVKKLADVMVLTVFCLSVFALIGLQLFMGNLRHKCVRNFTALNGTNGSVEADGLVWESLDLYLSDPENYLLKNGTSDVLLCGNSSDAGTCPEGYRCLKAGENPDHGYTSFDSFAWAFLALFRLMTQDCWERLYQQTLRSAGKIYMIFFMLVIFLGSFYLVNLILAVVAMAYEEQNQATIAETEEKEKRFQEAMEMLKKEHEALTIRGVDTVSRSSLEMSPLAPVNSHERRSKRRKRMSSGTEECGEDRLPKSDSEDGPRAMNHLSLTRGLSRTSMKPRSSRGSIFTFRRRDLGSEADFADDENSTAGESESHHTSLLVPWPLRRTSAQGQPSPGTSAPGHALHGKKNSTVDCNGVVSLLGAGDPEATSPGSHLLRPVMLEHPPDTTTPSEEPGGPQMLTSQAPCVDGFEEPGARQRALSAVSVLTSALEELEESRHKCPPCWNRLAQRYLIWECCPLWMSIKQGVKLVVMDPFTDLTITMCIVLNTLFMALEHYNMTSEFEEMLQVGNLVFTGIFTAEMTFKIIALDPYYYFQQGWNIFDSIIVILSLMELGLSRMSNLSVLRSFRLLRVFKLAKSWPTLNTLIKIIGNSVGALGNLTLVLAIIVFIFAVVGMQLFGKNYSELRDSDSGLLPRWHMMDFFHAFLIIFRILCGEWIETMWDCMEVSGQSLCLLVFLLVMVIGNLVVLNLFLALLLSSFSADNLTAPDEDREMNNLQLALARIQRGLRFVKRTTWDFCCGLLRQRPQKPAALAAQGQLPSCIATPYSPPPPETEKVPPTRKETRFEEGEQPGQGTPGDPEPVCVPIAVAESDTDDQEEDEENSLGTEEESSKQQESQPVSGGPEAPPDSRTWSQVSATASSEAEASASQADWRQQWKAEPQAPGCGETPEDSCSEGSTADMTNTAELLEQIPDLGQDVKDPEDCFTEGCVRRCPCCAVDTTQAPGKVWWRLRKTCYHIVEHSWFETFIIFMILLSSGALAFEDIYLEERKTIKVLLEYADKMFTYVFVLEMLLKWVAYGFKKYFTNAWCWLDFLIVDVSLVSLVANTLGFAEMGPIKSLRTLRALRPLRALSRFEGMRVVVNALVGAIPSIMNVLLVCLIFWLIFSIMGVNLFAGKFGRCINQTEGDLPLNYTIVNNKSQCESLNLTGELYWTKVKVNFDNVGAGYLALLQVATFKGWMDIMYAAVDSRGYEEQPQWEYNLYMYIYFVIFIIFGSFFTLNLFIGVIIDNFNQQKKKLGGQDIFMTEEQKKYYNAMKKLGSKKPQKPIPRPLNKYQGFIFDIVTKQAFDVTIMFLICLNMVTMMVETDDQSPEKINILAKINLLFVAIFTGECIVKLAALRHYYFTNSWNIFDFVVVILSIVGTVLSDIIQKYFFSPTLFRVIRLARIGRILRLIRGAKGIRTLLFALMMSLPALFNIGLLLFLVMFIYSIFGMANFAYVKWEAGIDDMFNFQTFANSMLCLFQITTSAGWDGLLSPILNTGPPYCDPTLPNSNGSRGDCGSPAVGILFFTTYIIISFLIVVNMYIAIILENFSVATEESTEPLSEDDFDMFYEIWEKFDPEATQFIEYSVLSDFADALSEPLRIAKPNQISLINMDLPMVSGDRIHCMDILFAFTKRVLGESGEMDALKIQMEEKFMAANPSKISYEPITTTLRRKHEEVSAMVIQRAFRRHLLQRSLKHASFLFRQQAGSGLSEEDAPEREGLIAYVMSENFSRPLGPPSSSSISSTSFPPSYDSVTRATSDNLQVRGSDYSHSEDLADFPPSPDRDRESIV
Sequence (Q07699 19-218 partner): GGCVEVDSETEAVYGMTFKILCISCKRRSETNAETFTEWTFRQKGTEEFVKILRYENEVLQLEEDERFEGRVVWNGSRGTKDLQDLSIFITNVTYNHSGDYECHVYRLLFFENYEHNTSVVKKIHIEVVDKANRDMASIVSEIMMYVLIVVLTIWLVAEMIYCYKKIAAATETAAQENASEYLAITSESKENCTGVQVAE
EXPERIMENTAL_PROTOCOL: Two-electrode voltage clamp of Nav1.5/β1 expressed in Xenopus oocytes
Assay type: cell-based
RECORDED_CONDITIONS: 20 μM
Would you mind answering with just the numeric figure?

Request: Entry CCCCC/C=C\C/C=C\CC/C=C\CCCC(=O)NCCS(=O)(=O)O [Pin-taurine] : reported Gmax/Gmax0 = ?
Response: 0.1

Continuing:
Request: What measured Gmax/Gmax0 goes with CCCCC/C=C\C/C=C\CCCCCCCC(=O)NCCS(=O)(=O)O [Lin-taurine, Linoleoyl taurine] ?
Response: 0.3

Request: I'd like to know its Gmax/Gmax0. The molecule in question is CCCCC/C=C\C/C=C\CC/C=C\CCCC(=O)NCC(=O)O [Pin-glycine]
Response: 0.3

Request: GET /values?readout=Gmax/Gmax0&item= CCCCC/C=C\C/C=C\C/C=C\C/C=C\CCCC(=O)NCCS(=O)(=O)O [N-AT, N-arachidonoyl taurine]
Response: 0.07

Request: Given the molecule CC/C=C\C/C=C\C/C=C\C/C=C\C/C=C\C/C=C\CCC(=O)NCCS(=O)(=O)O [DHA-taurine] , what is its reported Gmax/Gmax0?
Response: 0.04

Request: I would be grateful if you could share the reported Gmax/Gmax0 for CCCCC/C=C\C/C=C\CCCCCCCC(=O)NCC(=O)O [Lin-glycine] .
Response: 0.2

Request: Reported Gmax/Gmax0 for CC/C=C\C/C=C\C/C=C\C/C=C\C/C=C\C/C=C\CCC(=O)NCC(=O)O [DHA-glycine, docosahexaenoyl glycine] : what is it?
Response: 0.5

Each recorded value in this set is attributed to paper PMC7159882.
